# Tested Target: hSSTR2 (Homo sapiens, UniProt P30874)
# Construct: expressed in transfected cells; host or cells: CHO-K1 or CCL39 cells
# Sequence (P30874 whole entry): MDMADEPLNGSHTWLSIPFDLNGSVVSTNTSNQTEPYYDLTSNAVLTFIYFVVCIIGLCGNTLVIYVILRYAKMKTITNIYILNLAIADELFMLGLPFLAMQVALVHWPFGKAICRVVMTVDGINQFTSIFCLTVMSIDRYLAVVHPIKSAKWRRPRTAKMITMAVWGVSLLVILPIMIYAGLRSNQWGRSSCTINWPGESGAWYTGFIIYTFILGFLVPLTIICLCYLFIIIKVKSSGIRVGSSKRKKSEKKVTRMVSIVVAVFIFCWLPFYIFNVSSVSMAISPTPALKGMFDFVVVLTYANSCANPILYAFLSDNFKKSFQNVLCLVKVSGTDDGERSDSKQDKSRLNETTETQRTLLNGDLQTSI
# Procedure Text: Receptor autoradiography, displacement of 125I-[Leu8,D-Trp22,Tyr25]-SRIF-28 from membrane pellet sections
# Format: binding
# Conditions Used: Table 3; mean ± SEM when N ≧ 3; read-out: sst2 binding affinity (IC50)
Bridge positions count the residues as written; N and C are the ends. Square brackets hold non-standard residues; d marks the D form. Peptide text beside a SMILES is read from it. Phe(4-NHCONH2) = NC(=O)Nc1ccc(C[C@H](N)C(=O)O)cc1; Trp(5-F) = N[C@@H](Cc1c[nH]c2ccc(F)cc12)C(=O)O; Phe(4-Cl) = N[C@@H](Cc1ccc(Cl)cc1)C(=O)O; 2Nal = N[C@@H](Cc1ccc2ccccc2c1)C(=O)O
Assay Readout: IC50 (nM)
Numbers only here, please. The scale is nM.

Compound	Unit Tag	IC50
C[C@@H](O)[C@@H]1NC(=O)[C@H](CCCCN)NC(=O)[C@H](Cc2c[nH]c3ccc(F)cc23)NC(=O)[C@H](Cc2ccc(NC(N)=O)cc2)NC(=O)[C@H](NC(=O)[C@@H](N)Cc2ccc(Cl)cc2)CSSC[C@@H](C(=O)N[C@@H](Cc2ccc3ccccc3c2)C(N)=O)NC1=O [compound 26] (H-[Phe(4-Cl)][dC][Phe(4-NHCONH2)][Trp(5-F)]KTC[2Nal]-NH2; disulfide 2-7)	nM	23

INPUT: Recorded IC50 of CC(C)C[C@@H]1NC(=O)[C@H](NC(=O)[C@@H](N)Cc2ccc(Cl)cc2)CSSC[C@@H](C(=O)N[C@@H](Cc2ccc3ccccc3c2)C(N)=O)NC(=O)[C@H]([C@@H](C)O)NC(=O)[C@H](CCCCN)NC(=O)[C@@H](Cc2c[nH]c3ccccc23)NC1=O [compound 11] (H-[Phe(4-Cl)][dC]L[dW]KTC[2Nal]-NH2; disulfide 2-7) , please.
OUTPUT: 58

###

# Tested Target: UniProt:P30874
# Procedure Text: Calcium release assay in HEK-sst2 cells (Fluo-4NW)
# Type: cell-based
# Design: expressed in transfected cells; host or cells: HEK293 (HEK-sst2)
# Conditions Used: n ≧ 2
Bridge positions count the residues as written; N and C are the ends. Square brackets hold non-standard residues; d marks the D form. Peptide text beside a SMILES is read from it. * marks the point of attachment. ξ: configuration not given here. DOTA = O=C(O)CN1CCN(CC(=O)O)CCN(CC(=O)*)CCN(CC(=O)O)CC1; Phe(4-NO2) = N[C@@H](Cc1ccc([N+](=O)[O-])cc1)C(=O)O; dPhe(4-NHCONH2) = NC(=O)Nc1ccc(C[C@@H](N)C(=O)O)cc1; Phe(4-Cl) = N[C@@H](Cc1ccc(Cl)cc1)C(=O)O; ξDihydroorotoyl = O=C1CC(C(=O)*)NC(=O)N1; 2Nal = N[C@@H](Cc1ccc2ccccc2c1)C(=O)O; ξPhe(4-NH2) = Nc1ccc(CC(N)C(=O)O)cc1
Assay Readout: Calcium release tested in vitro in HEK-sst2 cells (function)

Molecule	Tested Target	Measured Value
C[C@@H](O)[C@@H]1NC(=O)[C@H](CCCCN)NC(=O)[C@@H](Cc2c[nH]c3ccccc23)NC(=O)[C@H](Cc2ccc(O)c(I)c2)NC(=O)[C@H](NC(=O)[C@H](Cc2ccc([N+](=O)[O-])cc2)NC(=O)CN2CCN(CC(=O)O)CCN(CC(=O)O)CCN(CC(=O)O)CC2)CSSC[C@@H](C(=O)N[C@H](Cc2ccc(O)cc2)C(N)=O)NC1=O [Peptide No. 32]	UniProt:P30874	Antagonist
C[C@@H](O)[C@@H]1NC(=O)[C@H](CCCCN)NC(=O)[C@@H](Cc2ccc(NC(N)=O)cc2)NC(=O)[C@H](Cc2ccc(O)cc2)NC(=O)[C@H](NC(=O)[C@H](Cc2ccc([N+](=O)[O-])cc2)NC(=O)CN2CCN(CC(=O)O)CCN(CC(=O)O)CCN(CC(=O)O)CC2)CSSC[C@@H](C(=O)N[C@@H](Cc2ccc3ccccc3c2)C(N)=O)NC1=O [Peptide No. 5] ({DOTA}-[Phe(4-NO2)][dC]Y[dPhe(4-NHCONH2)]KTC[2Nal]-NH2; disulfide 2-7)	UniProt:P30874	Antagonist
C[C@@H](O)[C@@H]1NC(=O)[C@H](CCCCN)NC(=O)[C@@H](Cc2ccc(NC(N)=O)cc2)NC(=O)C(Cc2ccc(NC(=O)C3CC(=O)NC(=O)N3)cc2)NC(=O)[C@H](NC(=O)[C@@H](N)Cc2ccc(Cl)cc2)CSSC[C@@H](C(=O)N[C@@H](Cc2ccc3ccccc3c2)C(N)=O)NC1=O (stereo partly drawn) [compound 29] (H-[Phe(4-Cl)][dC][ξPhe(4-NH2)](ξDihydroorotoyl)[dPhe(4-NHCONH2)]KTC[2Nal]-NH2; disulfide 2-7)	UniProt:P30874	Antagonist
